The origin of these recorded values is ChEMBL document CHEMBL1201862.

Measured GI50 accompanies every entry in the list below.
Tested on: HOP-18
experiment_description: NCI tumour cell line growth inhibition, 48 h
Active and inactive are the calls of the source. No stated cut-off is given here; in the data, active = GI50 up to about 1.1 µM and inactive = higher.

Please look at this compound and report its GI50: Cc1ccc2c(c1)C(c1cccc3ccccc13)OC2=O (centres undefined) 71.6 µM (inactive)

Please indicate GI50 recorded for COC1(Cc2ccccc2)C(=O)c2ccccc2N1C(C)=O (centres undefined) > 100 µM (inactive)

Name the recorded GI50 of the compound listed here: CSC(C1c2ccccc2N(C)c2[nH]c(=O)n(C)c(=O)c21)S(=O)(=O)c1ccc(C)cc1 (centres undefined) > 100 µM (inactive)

Quick one: give measured GI50 for Sc1nc(S)nc(Oc2ccc(Cl)c(Cl)c2)n1 36.4 µM (inactive)

Answer with the recorded GI50 of C/C(=N\NC(=S)Nc1ccc([N+](=O)[O-])cc1S(=O)(=O)O)c1ccccn1 only. 40.1 µM (inactive)

Output measured GI50 for this item: CC(C)Cc1ccc(C(C)C(=O)N2CCN(/C=C/c3ccccc3)CC2)cc1 (centres undefined) 21.5 µM (inactive)

Answer with reported GI50 of Cn1cc2c(n1)c(N/N=C/c1ccccc1)nn1nnnc21 > 100 µM (inactive)

Answer with reported GI50 of CS/C(=C(\S)c1ccccc1)c1ccccc1 > 100 µM (inactive)

Recall and state the measured GI50 for c1ccc(N2CCN(CCN3CCc4c([nH]c5ccccc45)C3c3cccnc3)CC2)cc1 (centres undefined) . > 100 µM (inactive)

###

Tested on: SNB-75
experiment_description: NCI tumour cell line growth inhibition, 48 h
Active and inactive are the calls of the source. No stated cut-off is given here; in the data, active = GI50 up to about 1.1 µM and inactive = higher.
Choose the fitting class; nothing outside active, inactive is accepted.

What was the test verdict on Cc1ccc(S(=O)(=O)N/N=C/C(=C/c2ccc(Cl)cc2)CC(/C=N/NS(=O)(=O)c2ccc(C)cc2)=C\c2ccc(Cl)cc2)cc1 ? inactive

Field: outcome | Entry: CCCCCC1C2C(=O)NC(=O)C1C(=O)NC2=O (centres undefined) inactive

What call does the record list for Cc1ccc2ccc3ccc(C)nc3c2n1 ? inactive

Identify the outcome logged in this assay for the compound shown: O=[N+]([O-])c1ccc(Cc2nc3ccccc3s2)cc1 inactive

Test call for this compound, please: O=C(/C=N/c1ccccc1C(=O)[O-])c1cccs1.O=C(/C=N/c1ccccc1C(=O)[O-])c1cccs1.[Zn+2] inactive

Given O=c1cccccc1NCCCCCCNc1cccccc1=O , state the outcome it received in this test. inactive

###

Form field: GI50 (one value per entry).
System: SW-620
experiment_description: NCI tumour cell line growth inhibition, 48 h
Active and inactive are the calls of the source. No stated cut-off is given here; in the data, active = GI50 up to about 1.1 µM and inactive = higher.

{"compound": "CC1OC(=O)c2ccccc2NC1=O (stereo unspecified)", "quantity_kind": "GI50", "result": "> 100 µM (inactive)"}

Provide only the value of recorded GI50 for CC(N)(/C=C/c1ccccc1)C(=O)O (stereo unspecified) > 100 µM (inactive)

Look up and report measured GI50 for this entry: O=c1c2ccccc2nc(-c2ccccc2)n1NC(=S)Nc1cccc(Cl)c1 > 100 µM (inactive)

Indicate the recorded GI50 value for this compound: COc1cc2cc(C(=O)N3CC(COS(C)(=O)=O)c4ccc(NC(=O)OCc5ccccc5)cc43)[nH]c2c(OC)c1OC (stereo unspecified) > 100 µM (inactive)

###

Record type: GI50 measurement. Applies to: HCT-15
Number only, in µM; omit the unit.

Consider the following illustrative entries.
{"compound": "COc1cc([C@@H]2c3cc4c(cc3[C@@H](NC(=O)c3ccc(C#N)cc3)C3COC(=O)[C@@H]32)OCO4)cc(OC)c1O (some centres not stated)", "quantity_unit": "µM", "GI50": 2.28}
{"compound": "CC1(C)C(=O)/C=C\\C(=O)C(C)(C)C(=O)/C=C\\C(=O)C(C)(C)C(=O)/C=C\\C(=O)C(C)(C)C(=O)/C=C\\C1=O", "quantity_unit": "µM", "GI50": 20.4}
{"compound": "CC(=O)OC(OC(C)=O)c1ccc2ccc3cccc4ccc1c2c34", "quantity_unit": "µM", "GI50": 33.7}

# next compound below
Please look at this compound and report its GI50: CC(C)Cc1ccc(C(C)C(=O)N2CCN(/C=C/c3ccccc3)CC2)cc1 (configuration not stated) 13.8

###

Entries and their GI50
Test system: A498
experiment_description: NCI tumour cell line growth inhibition, 48 h
Active and inactive are the calls of the source. Cut-off read from the data, not from the text of the source: active = GI50 up to about 1.1 µM and inactive = higher.

State, in one line, measured GI50 of O=C1COCCN1C(=O)c1ccccc1Cl > 100 µM (inactive)

Give the reported value of GI50 for this record: N#Cc1c(NC(=O)C(F)(F)F)sc2c3c(=O)c4ccccc4c(=O)c=3oc3ccccc3c12 33.3 µM (inactive)

###

Tested on: OVCAR-3
experiment_description: NCI tumour cell line growth inhibition, 48 h
Active and inactive are the calls of the source. Rule as the data show it: active = GI50 up to about 1.1 µM and inactive = higher.
quantity_kind: GI50

# count of solved cases: 8
{"compound": "COC1=CC2(C=CC1=O)c1cc(OC)c(OC)cc1CCN2C(=O)c1ccccc1 (stereo not given)", "GI50": "> 100 µM (inactive)"}
{"compound": "CCOC(=O)C1=C(NC)OCC1=O", "GI50": "> 100 µM (inactive)"}
{"compound": "N#Cc1ccc(C(=O)/C=C/c2ccc(O)c(O)c2)cc1", "GI50": "15.8 µM (inactive)"}
{"compound": "CC(=O)Nc1ccc(C(=O)NN2C(=O)C(Cl)C2c2cc(Br)ccc2O)cc1 (stereo not given)", "GI50": "4.11 µM (inactive)"}
{"compound": "Cn1c2ccccc2c(=NNc2cccc(C(=O)O)c2)c2ccccc21", "GI50": "3.57 µM (inactive)"}
{"compound": "O=S(=O)(Nc1ccc2ccc3cccc4ccc1c2c34)c1ccccc1", "GI50": "8.26 µM (inactive)"}
{"compound": "O=C(OC12CC3CC(CC(C3)C1)C2)c1ccc(NCc2cc(O)ccc2O)cc1", "GI50": "0.743 µM (active)"}
{"compound": "CCOc1cc(/C=C2/C(C)=NN(c3cccc(Cl)c3)/C2=N/c2nc3ccccc3s2)ccc1O", "GI50": "20 µM (inactive)"}

Provide only the value of recorded GI50 for FC(F)(F)c1nc(-c2ccccc2)oc1Sc1oc(-c2ccccc2)nc1C(F)(F)F > 100 µM (inactive)

Input COc1cccc(NC(=O)CC(=O)N2NC(c3ccccc3)C(/N=N/c3cccc(C(=O)O)c3)C2=O)c1 (stereo not given) , output reported GI50. 38.2 µM (inactive)

###

List of GI50 values.
System: SR
experiment_description: NCI tumour cell line growth inhibition, 48 h
Calls of active or inactive are those of the source. Cut-off read from the data, not from the text of the source: active = GI50 up to about 1.1 µM and inactive = higher.

{"molecule": "N#Cc1c(Nc2nc3ccccc3s2)c2ccccc2n2c1nc1ccccc12", "GI50": "> 100 µM (inactive)"}

Indicate its recorded GI50; the molecule in question is Cc1ccc2c(c1)C=CC1(O2)N(c2ccccc2)C(=S)OC1(C)C (stereo not drawn) 14.5 µM (inactive)

Determine from records and report GI50 for C/N=c1\ss/c(=N\C(=S)N(C)C)n1-c1ccccc1 > 100 µM (inactive)

###

Tested on: SW-620
experiment_description: NCI tumour cell line growth inhibition, 48 h
Active and inactive are the calls of the source. Cut-off read from the data, not from the text of the source: active = GI50 up to about 1.1 µM and inactive = higher. Non-standard residues stand in square brackets, D forms with d. Residues, ends and D or L forms follow the SMILES beside them. *: point of attachment. Ac5c = NC1(C(=O)O)CCCC1; Boc = CC(C)(C)OC(=O)*; tBu = CC(C)(C)*
API: response.call in active, inactive

Take a look at these entries with their results.
{"compound": "O=S(=O)(O)c1ccc(NN(c2c(O)ccc3ccccc23)S(=O)(=O)O)cc1", "assay_target": "SW-620", "class_assignment": "inactive"}
{"compound": "N#Cc1c(NC(=O)C(F)(F)F)sc2c3c(=O)c4ccccc4c(=O)c=3oc3ccccc3c12", "assay_target": "SW-620", "class_assignment": "inactive"}
{"compound": "COc1ccc(CN2C[C@H]3[C@@H](CC(=O)O[C@H]3C)CC2=O)cc1", "assay_target": "SW-620", "class_assignment": "inactive"}
{"compound": "CC(OC(C)(C)C)C1NC(=O)C(CCCCNC(=O)OC(C)(C)C)NC(=O)C(Cc2c[nH]c3ccccc23)NC(=O)C(Cc2ccccc2)NC(=O)C2(CCCC2)NC(=O)C(Cc2ccccc2)NC1=O (stereo unspecified) (cyclo([Ac5c]FWK(Boc)T(tBu)F); configuration not given here)", "assay_target": "SW-620", "class_assignment": "inactive"}
{"compound": "COc1ccc(NCC(=O)Nn2c(C)nc3ccc(S(=O)(=O)Nc4ccc(OC)cc4)cc3c2=O)cc1", "assay_target": "SW-620", "class_assignment": "inactive"}

So what was the verdict on C[C@]12CCC(=O)CC1CCCC2=O (stereo partly specified) in this test? inactive

For CCOC(=O)C1C(=O)CC(O)(c2ccccc2)C(C(=O)OCC)C1c1ccc(OC)cc1 (stereo unspecified) , which call appears in the assay record? inactive

Recorded call for Cc1ccc2nc(-c3ccccc3)cc(=O)n2c1 ? inactive

What is the recorded call for this compound in the test? CN(Cc1cnc2nc(N)nc(N)c2n1)c1ccc(C(=O)NC(CCC(=O)NC(CC(P(=O)(O)O)P(=O)(O)O)C(=O)O)C(=O)O)cc1 (stereo unspecified) inactive

// outcome(item) with item = COC(=O)[C@H](Cc1ccccc1)NC(=O)/C(=C/C(C)C)NC(=O)[C@H](CCSC)NC=O inactive

Field: outcome | Entry: COc1cc(CNC(=O)CCCCCCCCCCSC#N)ccc1O inactive

Call for entry COc1ccc(NC(=S)N/N=C/c2cccc(C)n2)cc1 : inactive

Assay result, entry Nc1nc(O)c2ncn([C@H]3CC[C@@H](CO)O3)c2n1 — outcome? inactive

Called result for Cc1ccc(S(=O)(=O)N/N=C/C(=C/c2ccc(Cl)cc2)CC(/C=N/NS(=O)(=O)c2ccc(C)cc2)=C\c2ccc(Cl)cc2)cc1 inactive

Dear colleague, could you share the recorded outcome for COc1cc([C@@H]2c3cc4c(cc3[C@@H](NC(=O)c3ccc(C#N)cc3)C3COC(=O)[C@@H]32)OCO4)cc(OC)c1O (stereo partly specified) when you have a moment? active

For Cc1ccc2c(c1)C=CC1(O2)N(c2ccccc2)C(=S)OC1(C)C (stereo unspecified) , which call appears in the assay record? inactive
